- Assayed target: KDM4C (Homo sapiens)
- Construct: N-terminal GST-tagged KDM4C^2-372 was purchased from BPS Biosciences; GST (N); purchased BPS Biosciences
- Sequence (Q9H3R0 2-372): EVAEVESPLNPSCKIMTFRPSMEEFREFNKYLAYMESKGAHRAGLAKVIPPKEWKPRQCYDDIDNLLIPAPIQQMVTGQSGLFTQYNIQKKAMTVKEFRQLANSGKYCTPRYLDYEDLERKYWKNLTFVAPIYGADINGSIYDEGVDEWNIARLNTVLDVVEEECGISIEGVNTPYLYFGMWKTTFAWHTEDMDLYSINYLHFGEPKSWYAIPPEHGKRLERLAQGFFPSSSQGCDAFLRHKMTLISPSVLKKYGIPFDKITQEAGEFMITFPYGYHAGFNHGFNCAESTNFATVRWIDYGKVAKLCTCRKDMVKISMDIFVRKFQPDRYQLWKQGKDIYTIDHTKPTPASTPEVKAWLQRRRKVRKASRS
- Assay summary: KDM4C Assay (SAMDI mass spectrometry demethylase assay)
- Assay type: biochemical
- Test settings: N-terminal GST-tagged KDM4C 2-372; class symbols; read-out: 4C IC50
Each item that follows carries a reported IC50.

(Q) Look up IC50 for this compound: `Cc1nn(C2CCN(CC(F)(F)F)CC2)cc1Nc1cnccc1C(=O)O`
(A) 1000 to 10000 nM

Now take the following compound into account.
(Q) Look up IC50 for this compound: `Cc1nn(C2CCN(CC3CC3)CC2)cc1Nc1cnccc1C(=O)O`
(A) 100 to 1000 nM
